Target: T1, BsGpsB_(1-68) (B. subtilis, UniProt P0CI74 1-68)
T1 construct: GpsB, Bacillus subtilis, residues 1-68; also called N-terminal domain of BsGpsB; source: E. coli, purified (Ni-NTA, thrombin, size exclusion)
T1 sequence (looked up): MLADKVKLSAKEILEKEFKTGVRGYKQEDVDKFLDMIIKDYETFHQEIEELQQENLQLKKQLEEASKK
Experiment: fluorescence polarisation
Conditions: both partners purified
No end group written: not given here.
MEASURED_ENDPOINT: pKd
// scale note: pKd = -log10(conc_M); give the bare number

Prompt line: Would you kindly share the measured pKd for MTNMSRVERRKAQNLYEDQNA (also: fluorescein label, position not given here, also called 21-residue fragment of the cytoplasmic domain of BsYpbE; source: synthetic peptide) [BsYpbE_(1-21), fluorescein-labelled] ?
Response line: 4.89

Where do the numbers come from? From paper PMC6335420.
